# ASSAY SYSTEM: GABA post-synaptic receptor
# PROTOCOL DESCRIPTION: Displacement of tritiated GABA from its post-synaptic receptor (Enna and Snyder method), suspension of synaptic membrane
# Format: binding
# REPORTED CONDITIONS: in vitro, tritiated GABA 2.9 nM final concentration, listed as 95884, read-out: IC50 (concentration which inhibits 50% of the fixation of the GABA on its post-synaptic receptor)

[
  {
    "COMPOUND": "N=c1ccc(-c2ccccc2)nn1Cc1cc(O)no1 [SR 95884]",
    "ASSAY SYSTEM": "GABA post-synaptic receptor",
    "IC50 / µM": 1.8
  }
]
